Origin of the recorded values: patent EP1561465A2

- System: Aeromonas spp.
- Assay info: MIC by agar dilution (NCCLS M7-A4), 288 enteropathogenic isolates, eight quinolones
- Format: cell-based
- Measurement setup: Aeromonas spp. (n = 16)
I'd be grateful if you could share measured MIC90 for these entries.
Return type: number; implicit unit mg/L.

Fill in: Aeromonas spp. MIC90 for CCn1cc(C(=O)O)c(=O)c2cc(F)c(N3CCNCC3)cc21 [Norfloxacin, norfloxacin] = 0.03

Record N[C@@H]1[C@H]2CN(c3nc4c(cc3F)c(=O)c(C(=O)O)cn4-c3ccc(F)cc3F)C[C@@H]12 [Trovafloxacin, trovafloxacin] / Aeromonas spp., MIC90 recorded as 0.03

Hey, Aeromonas spp. data for CC1COc2c(N3CCN(C)CC3)c(F)cc3c(=O)c(C(=O)O)cn1c23 (stereo not drawn) [Ofloxacin, ofloxacin] : MIC90 came out at 0.03

The measured MIC90 that CO/N=C1\CN(c2nc3c(cc2F)c(=O)c(C(=O)O)cn3C2CC2)CC1CN (racemic) [Gemifloxacin] showed for Aeromonas spp. is 0.03

Cc1c(F)c(N2CCNC(C)C2)cc2c1c(=O)c(C(=O)O)cn2C1CC1 (stereo not drawn) [Grepafloxacin, grepafloxacin] tested on Aeromonas spp. gave MIC90: 0.06

###

Exercise: state measured MIC for each of the compounds provided.
- System: Enterococcus gallinarum
- Assay info: MIC by NCCLS broth microdilution, 1100 Japanese clinical isolates 1997-1998
- Assay type: cell-based
- Measurement setup: Enterococcus gallinarum, GALLINARUM, Enterococcus gallinarum (vanC1), strain TMS1; read-out: MIC
Supply the numeric figure in µg/mL, leaving out any unit text.

Tested system Enterococcus gallinarum; MIC recorded for C[C@@H]1CN(c2c(F)c(N)c3c(=O)c(C(=O)O)cn(C4CC4)c3c2F)C[C@H](C)N1 was 0.25

The reported MIC value, Enterococcus gallinarum, for C[C@H]1COc2c(N3CCN(C)CC3)c(F)cc3c(=O)c(C(=O)O)cn1c23 reads 1

Kindly note: Enterococcus gallinarum, NC1CCN(c2nc3c(cc2F)c(=O)c(C(=O)O)cn3-c2ccc(F)cc2F)C1 (stereo not shown) , MIC value reported: 0.25

Param item: CO/N=C1\CN(c2nc3c(cc2F)c(=O)c(C(=O)O)cn3C2CC2)CC1CN (racemic) ; param system: Enterococcus gallinarum; output MIC: 0.032

###

- Test system: Haemophilus influenzae
- Assay info: MIC by NCCLS reference broth microdilution, 450 respiratory tract pathogens
- Assay type: cell-based
- Measurement setup: Haemophilus influenzae, β-lactamase positive (n = 20)
Assign MIC to each entry below.

Field MIC (system: Haemophilus influenzae) for entry C[C@@H]1CN(c2c(F)c(N)c3c(=O)c(C(=O)O)cn(C4CC4)c3c2F)C[C@H](C)N1 = 0.0075 to 0.12 µg/mL

// MIC (Haemophilus influenzae) for O=C(O)c1cn(C2CC2)c2cc(N3CCNCC3)c(F)cc2c1=O = 0.0075 to 0.015 µg/mL

Item CO/N=C1\CN(c2nc3c(cc2F)c(=O)c(C(=O)O)cn3C2CC2)CC1CN (racemic) was tested on Haemophilus influenzae; the reported MIC is 0.0075 to 0.06 µg/mL

Observed MIC, Haemophilus influenzae, C[C@H]1COc2c(N3CCN(C)CC3)c(F)cc3c(=O)c(C(=O)O)cn1c23 : 0.0075 to 0.03 µg/mL

Record CO/N=C(\C(=O)N[C@@H]1C(=O)N2C(C(=O)O)=C(COC(N)=O)CS[C@H]12)c1ccco1 ; system Haemophilus influenzae; MIC = 0.12 to 4 µg/mL

The value of MIC recorded for COc1c(N2C[C@@H]3CCCN[C@@H]3C2)c(F)cc2c(=O)c(C(=O)O)cn(C3CC3)c12 when tested on Haemophilus influenzae reads 0.0075 to 0.06 µg/mL

The measured MIC that N[C@@H]1[C@H]2CN(c3nc4c(cc3F)c(=O)c(C(=O)O)cn4-c3ccc(F)cc3F)C[C@@H]12 showed for Haemophilus influenzae is 0.0075 to 0.06 µg/mL

Tested system Haemophilus influenzae; MIC recorded for NC1CCN(c2c(F)cc3c(=O)c(C(=O)O)cn(C4CC4)c3c2Cl)C1 (centres unmarked) was 0.0075 to 0.25 µg/mL

###

- System: Gram negative anaerobic pathogens and facultative anaerobic pathogens
- Assay info: MIC by agar dilution, Brucella HK agar with 5% laked sheep blood, anaerobic reference strains
- Format: cell-based
- Measurement setup: Phocaeicola vulgatus, ATCC8482, Bacteroides vulgatus ATCC8482; read-out: MIC
Reported metric: MIC (µg/mL)
Report only the number, with the unit µg/mL understood.

Recorded result, CO/N=C1\CN(c2nc3c(cc2F)c(=O)c(C(=O)O)cn3C2CC2)CC1CN (racemic) [Gemifloxacin] , MIC: 0.25

Sure, the documented MIC for N[C@@H]1[C@H]2CN(c3nc4c(cc3F)c(=O)c(C(=O)O)cn4-c3ccc(F)cc3F)C[C@@H]12 [Trovafloxacin, trovafloxacin] is 0.5

For C[C@@H](O)[C@H]1C(=O)N2C(C(=O)O)=C(SCCN=CN)C[C@H]12 [Imipenem] the compound record lists MIC as 1

// C[C@@H]1CN(c2c(F)c(N)c3c(=O)c(C(=O)O)cn(C4CC4)c3c2F)C[C@H](C)N1 [Sparfloxacin, sparfloxacin] : MIC value = 2

###

- Test system: Aeromonas spp.
- Assay info: MIC by agar dilution (NCCLS M7-A4), 288 enteropathogenic isolates, gemifloxacin and 15 other antimicrobials
- Assay type: cell-based
- Measurement setup: read-out: MIC (mg/L) 50%; Aeromonas spp. N= 16
Please respond with reported MIC for every item in the list.

The molecule listed as Cc1c(F)c(N2CCNC(C)C2)cc2c1c(=O)c(C(=O)O)cn2C1CC1 (stereo not drawn) shows MIC equal to 0.03 mg/L

Form: molecule = CC1(C)S[C@@H]2[C@H](NC(=O)[C@H](N)c3ccc(O)cc3)C(=O)N2[C@H]1C(=O)O ; MIC = > 128 mg/L

get_value(item= CCn1cc(C(=O)O)c(=O)c2cc(F)c(N3CCNCC3)cc21 , readout=MIC) returns ≤ 0.015 mg/L

Reported MIC for N[C@@H]1[C@H]2CN(c3nc4c(cc3F)c(=O)c(C(=O)O)cn4-c3ccc(F)cc3F)C[C@@H]12 was ≤ 0.015 mg/L

Recorded MIC (molecule CO/N=C(\C(=O)N[C@@H]1C(=O)N2C(C(=O)O)=C(COC(C)=O)CS[C@H]12)c1csc(N)n1 ): 0.03 mg/L

What the record says about C[C@H]1COc2c(N3CCN(C)CC3)c(F)cc3c(=O)c(C(=O)O)cn1c23 : MIC is ≤ 0.015 mg/L

Just so you know, measured MIC for C[C@H]1c2cccc(O)c2C(=O)C2=C(O)[C@]3(O)C(=O)C(C(N)=O)=C(O)[C@@H](N(C)C)[C@@H]3[C@@H](O)[C@@H]21 came out at 0.5 mg/L

CC1(C)S[C@@H]2[C@H](NC(=O)[C@H](N)c3ccccc3)C(=O)N2[C@H]1C(=O)O has a reported MIC of > 128 mg/L

Reported MIC for CC1COc2c(N3CCN(C)CC3)c(F)cc3c(=O)c(C(=O)O)cn1c23 (stereo not drawn) was ≤ 0.015 mg/L

###

- Tested on: Enterococcus faecalis
- Assay info: MIC by agar macrodilution (NCCLS), 373 Gram positive isolates, Athens 1998
- Assay type: cell-based
Answer each item with its documented MIC distribution (µg/ml) 16.
Give only the figure.

The recorded MIC distribution (µg/ml) 16 for entry CN[C@H](CC(C)C)C(=O)N[C@H]1C(=O)N[C@@H](CC(N)=O)C(=O)N[C@H]2C(=O)N[C@H]3C(=O)N[C@H](C(=O)N[C@H](C(=O)O)c4cc(O)cc(O)c4-c4cc3ccc4O)[C@H](O)c3ccc(c(Cl)c3)Oc3cc2cc(c3O[C@@H]2O[C@H](CO)[C@@H](O)[C@H](O)[C@H]2O[C@H]2C[C@](C)(N)[C@H](O)[C@H](C)O2)Oc2ccc(cc2Cl)[C@H]1O equals 0

The molecule listed as N[C@@H]1[C@H]2CN(c3nc4c(cc3F)c(=O)c(C(=O)O)cn4-c3ccc(F)cc3F)C[C@@H]12 shows MIC distribution (µg/ml) 16 equal to 3

# MIC distribution (µg/ml) 16 (molecule: CO/N=C1\CN(c2nc3c(cc2F)c(=O)c(C(=O)O)cn3C2CC2)CC1CN (racemic) ) is 5

MIC distribution (µg/ml) 16 reading for Cc1c(F)c(N2CCNC(C)C2)cc2c1c(=O)c(C(=O)O)cn2C1CC1 (stereo not shown) : 2

###

- Test system: Klebsiella pneumoniae
- Assay info: MIC by NCCLS reference broth microdilution, 450 respiratory tract pathogens
- Type: cell-based
- Measurement setup: extended spectrum β-lactamase positive (n = 20)
For each record, write down the corresponding MIC Range.

For record NC1CCN(c2c(F)cc3c(=O)c(C(=O)O)cn(C4CC4)c3c2Cl)C1 (stereo not shown) [Clinafloxacin, clinafloxacin] the listed MIC Range is ≤0.0075 to 1 µg/mL

The compound listed as C[C@@H]1CN(c2c(F)c(N)c3c(=O)c(C(=O)O)cn(C4CC4)c3c2F)C[C@H](C)N1 [Sparfloxacin, sparfloxacin] has a reported MIC Range of 0.03 to 0.5 µg/mL

Consider O=C(O)c1cn(C2CC2)c2cc(N3CCNCC3)c(F)cc2c1=O [Ciprofloxacin, ciprofloxacin] . Its measured MIC Range is 0.015 to 0.5 µg/mL

For this compound ( COc1c(N2C[C@@H]3CCCN[C@@H]3C2)c(F)cc2c(=O)c(C(=O)O)cn(C3CC3)c12 [Moxifloxacin, moxifloxacin] ), measured MIC Range is 0.06 to 1 µg/mL

MIC Range in this record for CO/N=C1\CN(c2nc3c(cc2F)c(=O)c(C(=O)O)cn3C2CC2)CC1CN (racemic) [Gemifloxacin] : 0.03 to 1 µg/mL

Input C[C@H]1COc2c(N3CCN(C)CC3)c(F)cc3c(=O)c(C(=O)O)cn1c23 [Levofloxacin, levofloxacin] . Output MIC Range: 0.06 to 1 µg/mL

# MIC Range (compound: N[C@@H]1[C@H]2CN(c3nc4c(cc3F)c(=O)c(C(=O)O)cn4-c3ccc(F)cc3F)C[C@@H]12 [Trovafloxacin, trovafloxacin] ) is 0.06 to 0.5 µg/mL
